The following compounds are shown together with reported melting point values.

Below, 2 compounds whose answers are already recorded.
| compound | measured-endpoint | measured-value |
| --- | --- | --- |
| CCCc1c(C(=O)CC(C)OC)c2ccc(C(N)=O)cc2n1Cc1ccccc1Cl (centres undefined) | melting point | 155 to 157 °C |
| CN(C)CCCOc1ccccc1CNc1ccccc1 | melting point | 67 to 69 °C |

Enquiry: Which melting point value belongs to NC(=O)c1c(Cl)c(-c2ccccc2)n2c1CN(S(=O)(=O)c1ccc(-c3ccccn3)s1)CC2 ?
Return: 222 to 224 °C

Enquiry: Which value of melting point has been reported for O=C(CS(=O)(=O)c1ccccc1)OC1CCCCC1 in the records?
Return: 35 to 38 °C

* * *

Let's look at some compounds and their measured melting point.

| compound | melting point |
| --- | --- |
| CCOC(=O)CCCOc1ccc(NC(=O)c2ccc(C(C)(C)C)cc2)cc1 | 100 to 101 °C |
| O=c1ccc2c(-n3cncn3)nccc2[nH]1 | > 300 °C |
| O=C(NCP(=O)(O)c1ccccc1)c1ccccc1 | 158 to 160 °C |

Enquiry: Looking for the measured melting point of CC(=O)NCc1ccc(CN2CCN(c3ncccn3)CC2)cc1 , can you help?
Return: 120 to 121 °C

Enquiry: Record request: melting point value, item COC(=O)CCn1c(C(=O)NCC(=O)N(CC2CCCCC2)c2c(OC)cc(C)cc2OC)cc2ccccc21
Return: 68 °C

* * *

Entries and their melting point values follow.

Would you please look over these solved cases?
| compound | melting point |
| --- | --- |
| O=C(NC1CCOCC1)c1cccc(-c2cccc3cc(Cc4cc(F)cc(Cl)c4)sc23)c1 | 127 to 128 °C |
| CCCCCC(CC(=O)Nc1cc(C(N)=O)ccc1C(C)(C)C)c1cc(Br)c(OC)cc1OC (configuration not stated) | 102 to 104 °C |
| CCC(=O)N(C)c1cccc(-c2ccc3nnc(NC)n3n2)c1 | 212 to 213 °C |

Enquiry: I would be grateful if you could share the reported melting point for C=Cc1ccc(Nc2nc(Cl)nc(OC)n2)cc1 .
Return: 118 to 122 °C

Enquiry: Reported melting point for COc1cc(C(=O)N2CCC(CCN3CCC(Nc4nc5ccccc5n4Cc4ccccn4)CC3)(c3ccc(F)c(F)c3)C2)cc(OC)c1OC (configuration not stated) : what is it?
Return: 101 to 107 °C

Enquiry: Quick one: melting point of CCOC(=O)C1CSCCN1C(=O)Nc1ccc(Cl)cc1 (configuration not stated) ?
Return: 152 to 154 °C

Enquiry: If you can, please state the reported melting point value of Cc1cc(C(=O)NC(C#N)c2ccccc2)n(C)n1 (configuration not stated) .
Return: 135 to 136 °C

* * *

measured-endpoint: melting point

Use the examples below as a reference point.
| compound | melting point |
| --- | --- |
| NC(=O)c1ccccc1NCCC12CCCN1CCC2 | 145 to 147 °C |
| Cc1ccc(-n2cc(CCCO)c(C(C)C)n2)nc1 | 82 to 83 °C |
| Cc1cnc(-n2ccc(C(F)(F)F)n2)nc1Oc1csc(C(F)(F)F)c1 | 113 to 115 °C |
| COc1cc(OC)cc(\C(C)=C/C=C/C(C)=C/C(=O)Nc2ccc(O)cc2)c1 | 162 to 163 °C |
| CC(C)(C)NC(=O)[C@@H]1CCCN1C(=O)[C@@H](O)[C@H](Cc1ccccc1)NC(=O)[C@H](CC(N)=O)NC(=O)COc1ccc(NC(=O)CN2CCOCC2)cc1 | 121 to 127 °C |
| Cc1cc(C(N)=O)ccc1N | 124 °C |
| O=P(O)(O)CC(O)CNO (configuration not stated) | 153 to 155 °C |
| COc1ccc(-n2cc(CCC(=O)NS(C)(=O)=O)c(-c3ccc(Cl)c(F)c3)n2)cc1Cl | 211 to 212 °C |
| CC(C)(C)OC1CCCC2C(=O)CCCC12C (configuration not stated) | 78 to 79 °C |
| CC(C)(C)c1cc(C2=CCCCCC2)c(O)c(C(C)(C)C)c1 | 78 to 80 °C |

Enquiry: What value of melting point has been reported for the following compound? O=C(Nc1cc(Cl)cc(Cl)c1)Nc1ccc(Br)cc1-c1nnn[nH]1
Return: 263 to 264 °C

Enquiry: Please report the recorded melting point for COc1cccc(-c2nc3nccnc3[nH]2)c1 .
Return: 289 °C

Enquiry: melting point for CC(C)(CO)Nc1nc(-c2ccccc2)nc2ccccc12 ?
Return: 136 to 138 °C

Enquiry: Reported melting point, compound COc1cc(-c2ccco2)c2oc(-c3ccc(OC)c(F)c3)nc2c1 : ____
Return: 155 °C

Enquiry: If you can, please state the reported melting point value of CCC(C)CNNC(=O)c1cc(N)cc(C(=O)NNCC(C)CC)c1 (configuration not stated) .
Return: 162 to 163 °C

Enquiry: Tell me the measured melting point of O=C(CCc1c(O)c2ccccc2oc1=O)c1ccccc1 , please.
Return: 149 to 151 °C

Enquiry: Returns the measured melting point for the input compound. Input: Cc1ccc(C(O)c2ccc3noc(-c4cccc(Cl)c4)c3c2)cc1 (configuration not stated)
Return: 225 °C

Enquiry: Returns the measured melting point for the input compound. Input: CCCCc1oc2ccccc2c1C(=O)c1ccc(O)cc1
Return: 119 °C

Enquiry: Returns the measured melting point for the input compound. Input: CCc1cccc2c1C(=O)C(=S)N2
Return: 171 to 172 °C

Enquiry: Form field: reported melting point of COc1cc(CBr)cc2c(Br)ccc(OC(C)C)c12
Return: 126 °C

Enquiry: Which value of melting point has been reported for Cc1cc(C)c(S(=O)(=O)Oc2nc(Nc3ccc(F)cc3F)c(C(=O)n3ccnc3)cc2F)c(C)c1 in the records?
Return: 98 to 101 °C

Enquiry: Which melting point reading was recorded for the compound CC(C)(CNc1ccc(C2=NNC(=O)CC2)cc1)[N+](=O)[O-] ?
Return: 220 to 222 °C

* * *

Quick reference: melting point of the listed items.
Express your answer in °C, writing the number without its unit.

Please review the entries below; each comes with its answer.
| compound | melting point / °C |
| --- | --- |
| CCC(CC)/C(N)=C(\C#N)C(=O)Cl | 102 |
| COCCC(=O)OCC(=O)C1(O)CCC2C3CC(C)C4=CC(=O)C=CC4(C)C3C(O)CC21C (configuration not stated) | 230 |

Let us move to another entry and its melting point.
Enquiry: Form field: reported melting point of Fc1cccc2c(NCCc3ccc(Oc4cccc(C(F)(F)F)n4)cc3)ccnc12
Return: 157

* * *

# reported melting point; entries follow

Example entries begin here.
| compound | melting point |
| --- | --- |
| CC(C)(C)C1CCCC=C1c1ccc(C(=O)O)cc1 (stereo not drawn) | 197 °C |
| Nc1cc2c(cc1C(=O)c1ccccc1Cl)CCC2 | 90 to 92 °C |
| O=C(O)CCC(O)c1ccc(-c2ccc(F)cc2F)cc1 (stereo not drawn) | 111 to 112 °C |

Enquiry: Any idea what melting point was measured for O=C(O)CCc1cccc(Oc2cccc(-c3nnc(Nc4ccc(Cl)c(Cl)c4)s3)c2)c1 ?
Return: 194 to 196 °C

Enquiry: Given the compound CN1C(O)=C(C(=O)NCc2ccccc2)c2ccsc2S1(=O)=O , what is its reported melting point?
Return: 176 to 177 °C

Enquiry: Can you look up the measured melting point of CC(C)SC(=S)N1Cc2[nH]c3ccccc3c2CC1C(=O)O (stereo not drawn) for me?
Return: 188 to 190 °C

Enquiry: Field request: melting point | item: Cn1c2ccc(Cl)cc2c2c(CC(=O)O)nn(-c3ccccc3)c(=O)c21
Return: 206 to 208 °C

Enquiry: Any idea what melting point was measured for CONS(=O)(=O)c1ccc(C)cc1 ?
Return: 116 to 117 °C

Enquiry: Suppose we examine the compound O=S(=O)(Nc1ccc2c(OCc3ccc(OC(F)(F)F)cc3)cccc2c1)C(F)(F)F ; what melting point value has been reported?
Return: 80 to 82 °C

Enquiry: Any idea what melting point was measured for CN1CCN(c2cccc3ccc(NCc4ccccc4)cc23)CC1 ?
Return: 115 to 117 °C

Enquiry: Can you share its melting point? I mean this compound: CCCCCCSC1=CC(=O)NC1=O
Return: 99 to 101 °C

Enquiry: GET /values?readout=melting point&item= CC1(C)C(C=C(Cl)Cl)C1(C#N)C(=O)O (stereo not drawn)
Return: 128 to 132 °C

Enquiry: Quick one: melting point of O=c1cc(-c2ccncc2)oc2ccccc12 ?
Return: 144 to 145 °C

* * *

measured-endpoint: melting point

Past entries and their recorded results:
| compound | melting point |
| --- | --- |
| CN(C)C1CCc2[nH]c3cccc(OCc4ccccc4)c3c2C1 (stereo not drawn) | 207 to 209 °C |
| Nn1c(=O)c2cc(F)c(S(=O)(O)=S)nc2n(C2CC2)c1=O | 167 to 169 °C |
| Nc1nc(Nc2cccc(Br)c2)c2c(n1)[nH]c1ccccc12 | 234 °C |

Enquiry: Please report the recorded melting point for Cn1nccc1-n1ccnc1S(N)(=O)=O .
Return: 230 to 233 °C

Enquiry: Could you share which melting point value was measured for O=C(Nc1ccc(-c2ccccc2)cc1C(=O)O)OCc1ccc(-c2ccccc2)cc1 ?
Return: 234 to 236 °C

Enquiry: Sample CCN(CC)C(=O)CNc1cc(N)ccc1OC — what was its melting point?
Return: 111 °C

Enquiry: Need melting point of Cc1[nH]c(=O)n(C2CCCCC2)c1-c1ccc(OCCC(C)C)cc1 , thanks.
Return: 198 to 200 °C

Enquiry: Which melting point is listed for COc1nc(C)nc(NC(=O)NS(=O)(=O)c2ccccc2C(=O)OC(C)C)n1 ?
Return: 193 to 196 °C

Enquiry: State the recorded melting point for this entry: COc1cc(C)c(C(=O)CCCCCCCCCCCCCCCCCO)c(O)c1OC
Return: 101 °C

Enquiry: Can you share its melting point? I mean this compound: CCN1C(=O)C(C)(C)c2cc(-c3nc4ccccc4[nH]3)ccc21
Return: 263 to 265 °C

Enquiry: Entry N#Cc1cccc(CN2C(=O)NC(c3ccccc3)(c3ccccc3)C2=O)c1 has what melting point?
Return: 160 to 164 °C

Enquiry: What value of measured melting point is listed for N#CC(CF)(CF)CF ?
Return: 70 to 75 °C

Enquiry: Looking for the measured melting point of CC(Oc1ccc(Cl)cc1Cl)c1nnc(N=C=O)s1 (stereo not drawn) , can you help?
Return: 176 to 179 °C

Ref: a melting point compilation (Tetko et al.; mined from patent text by program, amines drawn as free bases though some values may be those of a salt)
